Reported SI values follow for various compounds
# Tested on: EV71
# test.method.notes: In-vitro experiment against EV71 virus (RD cells, MTT)
# Assay type: cell-based
# condition.parameters: selectivity index, EV71, RD cells
# Experimental: RD cells were seeded into a 96-well plate (10^4 cells/well), and infected with 100× TCID50 of EV71 viruses. After 2 hrs, various concentrations of the derivative were added. […] Uninfected cells were also given various concentrations of the derivative to determine the CC50.

- compound: "O=C(COc1ccc(Cl)cc1Cl)OC1C(O)C=C2CCN3Cc4cc5c(cc4C1C23)OCO5 (stereo not drawn)"
  measured.endpoint: "SI"
  reported.value: 75.94
- compound: "O=C(COc1ccccc1[N+](=O)[O-])OC1C(O)C=C2CCN3Cc4cc5c(cc4C1C23)OCO5 (stereo not drawn)"
  measured.endpoint: "SI"
  reported.value: 91.37
- compound: "O=C(COc1ccc(I)cc1)OC1C(O)C=C2CCN3Cc4cc5c(cc4C1C23)OCO5 (stereo not drawn)"
  measured.endpoint: "SI"
  reported.value: 54.15
- compound: "O=C(CCOc1ccccc1)OC1C(O)C=C2CCN3Cc4cc5c(cc4C1C23)OCO5 (stereo not drawn)"
  measured.endpoint: "SI"
  reported.value: 92.43
- compound: "O=C(COc1ccc(Cl)cc1)OC1C(O)C=C2CCN3Cc4cc5c(cc4C1C23)OCO5 (stereo not drawn)"
  measured.endpoint: "SI"
  reported.value: 139.85
- compound: "O[C@H]1[C@H]2c3cc4c(cc3CN3CCC(=C[C@@H]1O)[C@H]23)OCO4"
  measured.endpoint: "SI"
  reported.value: 46.24

Here is the next item to consider.
Briefly, SI measured for O=C(COc1ccc([N+](=O)[O-])cc1)OC1C(O)C=C2CCN3Cc4cc5c(cc4C1C23)OCO5 (stereo not drawn) : 85.67

These data points were gathered from patent US11932653B2.
